The measurements presented in this section are drawn from paper PMC7663003.

# System: 27Myc (DNA, G4) TGGGGAGGGTGGGGAGGGTGGGGAAGG
# assayComment: fluorescence titration
# measurementContext: 153 mM Na+, 2.7 mM K+, 2.5 mM Mg2+; PBS153NM (phosphate), pH 7.4, 25 °C; dye 3 μM; apparent
Kd less than 10 µM is 1.0; Kd greater than or equal to 10 µM is 0.0.

hey, is Kd for "Cc1ccc2c(c1)sc(-c1ccc(N(C)C)cc1)[n+]2CCNC(=O)NCCCNCCCCNCCCN" lower than 10 µM or not?
1.0

Is the reported Kd for "Cc1ccc2c(c1)sc(-c1ccc(N(C)C)cc1)[n+]2CCO" strictly below 10 µM?
0.0

Problem: For the compound "Cc1ccc2c(c1)sc(-c1ccc(N(C)C)cc1)[n+]2C" , is Kd under 10 µM?
0.0

Given "Cc1ccc2c(c1)sc(-c1ccc(N(C)C)cc1)[n+]2CCNC(=O)COCC(=O)NCCOCCOCCOCCOCCOCCOCCOCCOCCOCCOCCOCCN" , is recorded Kd strictly lower than 10 µM?
0.0

Please let me know if "Cc1ccc2c(c1)sc(-c1ccc(N(C)C)cc1)[n+]2CCNC(=O)COCCOCCN" shows Kd below 10 µM.
0.0

* * *

# System: 18Ras (RNA, G4) GGGAGGGGCGGGUCUGGG
# assayComment: fluorescence titration
# measurementContext: 153 mM Na+, 2.7 mM K+, 2.5 mM Mg2+; PBS153NM (phosphate), pH 7.4, 25 °C; dye 3 μM; apparent
For each record, write down the corresponding Kd.

I am curious: what Kd value has been reported for "Cc1ccc2c(c1)sc(-c1ccc(N(C)C)cc1)[n+]2CCNC(=O)COCCOCCN" ?
15.5 ± 1.7 µM

Need Kd, item "Cc1ccc2c(c1)sc(-c1ccc(N(C)C)cc1)[n+]2CCO"
28.1 ± 4.0 µM

Recorded Kd for "Cc1ccc2c(c1)sc(-c1ccc(N(C)C)cc1)[n+]2CCNC(=O)COCC(=O)NCCOCCOCCOCCOCCOCCOCCOCCOCCOCCOCCOCCN" , please?
16.3 ± 1.8 µM

Please report the recorded Kd for "Cc1ccc2c(c1)sc(-c1ccc(N(C)C)cc1)[n+]2C" .
15.3 ± 1.6 µM

# input molecule: "Cc1ccc2c(c1)sc(-c1ccc(N(C)C)cc1)[n+]2CCNC(=O)NCCCNCCCCNCCCN" ; wanted: its Kd
14.7 ± 3.2 µM

* * *

Give Kd for every item shown.
# Tested on: 18Ras (RNA, G4) GGGAGGGGCGGGUCUGGG
# assayComment: fluorescence titration
# measurementContext: 140 mM K+, 10 mM Na+, 2.5 mM Mg2+; PBS140KM (phosphate) pH 7.4, 25 °C; 3 μM dye; apparent
Provide only the numeric value, understood in µM.

I would be grateful if you could share the reported Kd for "Cc1ccc2c(c1)sc(-c1ccc(N(C)C)cc1)[n+]2C" .
19.0

# query: Kd of entry "Cc1ccc2c(c1)sc(-c1ccc(N(C)C)cc1)[n+]2CCNC(=O)NCCCNCCCCNCCCN"
12.8

Quick check: Kd of "Cc1ccc2c(c1)sc(-c1ccc(N(C)C)cc1)[n+]2CCNC(=O)COCC(=O)NCCOCCOCCOCCOCCOCCOCCOCCOCCOCCOCCOCCN" ?
15.3

Data request, read-out Kd, for "Cc1ccc2c(c1)sc(-c1ccc(N(C)C)cc1)[n+]2CCNC(=O)COCCOCCN"
11.8

Need Kd, item "Cc1ccc2c(c1)sc(-c1ccc(N(C)C)cc1)[n+]2CCO"
25.0

* * *

# Test system: 22Kit (DNA, G4) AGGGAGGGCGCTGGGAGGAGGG
# assayComment: fluorescence titration
# measurementContext: 140 mM K+, 10 mM Na+, 2.5 mM Mg2+; PBS140KM (phosphate) pH 7.4, 25 °C; 3 μM dye; apparent
Threshold 9 µM. Kd below it: yes (1). Kd at it or above: no (0).

Quick check: Kd of "Cc1ccc2c(c1)sc(-c1ccc(N(C)C)cc1)[n+]2CCNC(=O)COCC(=O)NCCOCCOCCOCCOCCOCCOCCOCCOCCOCCOCCOCCN" under 9 µM?
no (0)

State whether 9 µM exceeds Kd recorded for "Cc1ccc2c(c1)sc(-c1ccc(N(C)C)cc1)[n+]2CCNC(=O)NCCCNCCCCNCCCN" .
yes (1)

Dear colleague, could you confirm whether Kd of "Cc1ccc2c(c1)sc(-c1ccc(N(C)C)cc1)[n+]2CCO" falls below 9 µM? Thanks.
no (0)

Input "Cc1ccc2c(c1)sc(-c1ccc(N(C)C)cc1)[n+]2C" ; condition: Kd strictly below 9 µM. Does it hold?
no (0)

Does this compound meet the criterion Kd < 9 µM? "Cc1ccc2c(c1)sc(-c1ccc(N(C)C)cc1)[n+]2CCNC(=O)COCCOCCN"
no (0)

* * *

# Test system: 26Tel (DNA, G4) TTAGGGTTAGGGTTAGGGTTAGGGTT
# assayComment: fluorescence titration
# measurementContext: 140 mM K+, 10 mM Na+, 2.5 mM Mg2+; PBS140KM (phosphate) pH 7.4, 25 °C; 3 μM dye; apparent
measuredEndpoint: Kd (µM)
# unit: µM | format: bare number

Value lookup for Kd; key = "Cc1ccc2c(c1)sc(-c1ccc(N(C)C)cc1)[n+]2C"
4.0

# lookup: Kd of "Cc1ccc2c(c1)sc(-c1ccc(N(C)C)cc1)[n+]2CCO"
11.1

Look up Kd for this molecule: "Cc1ccc2c(c1)sc(-c1ccc(N(C)C)cc1)[n+]2CCNC(=O)COCC(=O)NCCOCCOCCOCCOCCOCCOCCOCCOCCOCCOCCOCCN"
23.9

Please give the measured Kd for this molecule: "Cc1ccc2c(c1)sc(-c1ccc(N(C)C)cc1)[n+]2CCN"
9.7

Data request, read-out Kd, for "Cc1ccc2c(c1)sc(-c1ccc(N(C)C)cc1)[n+]2CCNC(=O)COCCOCCN"
5.3

I'd like to know its Kd. The molecule in question is "Cc1ccc2c(c1)sc(-c1ccc(N(C)C)cc1)[n+]2CCNC(=O)NCCCNCCCCNCCCN"
2.4

* * *

Kindly supply the reported Kd values for the records listed here.
# Test system: 22AG (DNA, G4) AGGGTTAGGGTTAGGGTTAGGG
# assayComment: fluorescence titration
# measurementContext: 140 mM K+, 10 mM Na+, 2.5 mM Mg2+; PBS140KM (phosphate) pH 7.4, 25 °C; 3 μM dye; apparent
Give your result in µM as a bare value.

Item under review: "Cc1ccc2c(c1)sc(-c1ccc(N(C)C)cc1)[n+]2CCO" . Reported Kd?
20.1

Which Kd value belongs to "Cc1ccc2c(c1)sc(-c1ccc(N(C)C)cc1)[n+]2C" ?
5.0

Name the recorded Kd for "Cc1ccc2c(c1)sc(-c1ccc(N(C)C)cc1)[n+]2CCNC(=O)COCCOCCN" .
11.8

So what's the measured Kd for this one? "Cc1ccc2c(c1)sc(-c1ccc(N(C)C)cc1)[n+]2CCNC(=O)NCCCNCCCCNCCCN"
5.4

* * *

# Test system: 27Myc (DNA, G4) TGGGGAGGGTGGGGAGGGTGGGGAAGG
# assayComment: fluorescence titration
# measurementContext: 140 mM K+, 10 mM Na+, 2.5 mM Mg2+; PBS140KM (phosphate) pH 7.4, 25 °C; 3 μM dye; apparent
measuredEndpoint: Kd (µM)
Provide only the numeric value, understood in µM.

Data request, read-out Kd, for "Cc1ccc2c(c1)sc(-c1ccc(N(C)C)cc1)[n+]2CCNC(=O)NCCCNCCCCNCCCN"
6.8

Which Kd is reported for this compound? "Cc1ccc2c(c1)sc(-c1ccc(N(C)C)cc1)[n+]2CCNC(=O)COCC(=O)NCCOCCOCCOCCOCCOCCOCCOCCOCCOCCOCCOCCN"
13.4

Sample "Cc1ccc2c(c1)sc(-c1ccc(N(C)C)cc1)[n+]2CCNC(=O)COCCOCCN" — what was its Kd?
8.7

If you can, please state the reported Kd value of "Cc1ccc2c(c1)sc(-c1ccc(N(C)C)cc1)[n+]2CCO" .
19.9

Name the recorded Kd for "Cc1ccc2c(c1)sc(-c1ccc(N(C)C)cc1)[n+]2C" .
6.9
